Source: PubChem BioAssay AID651582

# Test description: inhibitors of triacylglycerol accumulation, primary screen, cell-based, uHTS, fluorescence, H9c2 (AID 651582)
# Experimental parameters: H9c2 cells, Nile Red lipid (TAG) fluorescence, at 12.5 µM, cells loaded with 200 µM oleic acid; measured here: DAPI nuclei count viability
Hit rate of the full screen: of about 230,000 compounds, about 1,500 (0.65%) were called active. The entries come from a sample that favours actives as a whole.
List of DAPI nuclei signal change (viability), lower = more cytotoxic values.
Metric name: DAPI nuclei signal change (viability), lower = more cytotoxic (%)

1) COc1cccc(NC(=O)C2(C)CCN2Cc2ccccc2Cl)c1 (stereo not given) : 10.6
2) C/C(=N\Nc1ccc(Cl)nn1)c1ccccc1O : -30.3
3) CN(C)S(=O)(=O)c1cccc(NC(=S)NCc2ccc3c(c2)OCO3)c1 : 8.91
4) Cc1ccc(/C=N/NC(=S)NC2CCCCC2)o1 : -2.44
5) CS(=O)(=O)c1ccc(C(=O)NNC(=O)c2cccs2)cc1 : -4.79
6) CCCCc1ccc(NS(=O)(=O)c2cccc(C(=O)N3CCCN(C)CC3)c2)cc1 : 4.43
7) NC(=O)c1ncn([C@@H]2O[C@H](CN=C3NS(=O)(=O)c4ccccc43)[C@@H](O)[C@H]2O)n1 : -1.84
8) Cc1c(NS(=O)(=O)c2cccc(C(=O)Nc3ccc(SC(F)F)cc3)c2)c(=O)n(-c2ccccc2)n1C : -2.02
9) COc1ccc(S(=O)(=O)N2CCN(CC(=O)NCC3(N4CCOCC4)CCCCC3)CC2)cc1 : -5.18
10) CN(CC(=O)Nc1ccc(F)cc1)C(=O)c1ccc(-c2ccc(Cl)cc2)o1 : 0.479

###

# Test description: inhibitors of triacylglycerol accumulation, primary screen, cell-based, uHTS, fluorescence, H9c2 (AID 651582);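 for inhibition: 0% = DMSO wells and 100% = triacsin C control wells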
# Experimental parameters: H9c2 cells, Nile Red lipid (TAG) fluorescence, at 12.5 µM, cells loaded with 200 µM oleic acid; stronger effect = higher value
Among all 230,000 compounds or so, about 1,500 (0.65%) were called active. Shown is part of a subset that was picked to be rich in actives.
Metric name: inhibition (%)

1. COC(=O)c1ccc(C)c(NC(=O)Cn2c(C)csc2=O)c1 : -8.36
2. O=C(COC(=O)c1ccc(F)cc1)NCC1COc2ccccc2O1 (stereo unspecified) : 4.29
3. COc1cc(OC)cc(C(=O)NNC(=O)CCOc2ccccc2OC)c1 : 7.42
4. COc1ccccc1NC1=NC2(CCCC2)N=C(N)N1 : 8.65
5. NC(=O)c1ccccc1N(Cc1ccccc1)S(=O)(=O)c1ccccc1 : 2.63
6. CCOC(=O)N1CCN(C(=O)c2ccccc2N(Cc2ccccc2)S(=O)(=O)c2ccc(OC)cc2)CC1 : 53.3
7. CC(=O)CC(CC(=O)NC1CCCCC1)c1ccccc1 (stereo unspecified) : 2.67
8. NNC(=O)c1nnn(-c2nonc2N)c1CN1CCCC1 : -6.85
9. NC(=O)c1ncn([C@@H]2O[C@H](CN=C3NS(=O)(=O)c4ccccc43)[C@@H](O)[C@H]2O)n1 : 13.5
10. CCN1C(=O)/C(=C\N2CCOCC2)SC1=S : 1.92
11. COc1cc(C(O)c2nc(-c3cnn(C)c3)cs2)ccc1F (stereo unspecified) : -0.779

###

# Test description: inhibitors of triacylglycerol accumulation, primary screen, cell-based, uHTS, fluorescence, H9c2 (AID 651582)
# Experimental parameters: H9c2 cells, Nile Red lipid (TAG) fluorescence, at 12.5 µM, cells loaded with 200 µM oleic acid; measured here: DAPI nuclei count viability
Among all 230,000 compounds or so, about 1,500 (0.65%) were called active. Many of the other results were omitted from the sample, so actives are more common in it than they were.
Metric name: DAPI nuclei signal change (viability), lower = more cytotoxic

1. O=C(CSc1nc(Nc2ccccc2)nc(N2CCOCC2)n1)Nc1cc(Cl)ccc1O : -18.9%
2. Cc1nc2c(OCC(=O)C(C)(C)C)cccn2c1N(C)Cc1cccs1 : 21.8%
3. COc1ccc(Nc2ccc3ccccc3c2)cc1 : 8.55%
4. CCN(CC)c1ncnc2c1ncn2[C@H]1CN(Cc2cccs2)C[C@@H](CO)O1 : -0.273%
5. O=C(Cn1cnc2c(OCc3ccccc3)ncnc21)NCCCn1ccnc1 : 9.45%
6. COc1ccc(Nc2cc(=O)oc3ccccc23)cc1 : -14.8%
7. CCCNC(=O)C1(C)CCN(C(=O)c2ccc(F)cc2Cl)C1 (stereo unspecified) : 8.17%
8. O=C(CSc1nc2ccc(Nc3nc(N4CCOCC4)nc(N4CCOCC4)n3)cc2s1)NCc1ccco1 : -0.911%
9. Nc1nnc(SCC(=O)Nc2ccc3nc(SCC(=O)Nc4ccccc4)sc3c2)s1 : -9.1%
10. O=C(CSc1c2c(nc3ccc(Cl)cc13)CCCC2)NCc1ccco1 : 13.7%
11. C=CCn1c(CSc2nc3ccccc3s2)nnc1SCC(=O)NCc1ccco1 : -7.04%
